In this section, each of the compounds is paired with its reported inhibition at 1 µM.
Target: MC4-R (Homo sapiens)
Sequence (P32245 whole entry): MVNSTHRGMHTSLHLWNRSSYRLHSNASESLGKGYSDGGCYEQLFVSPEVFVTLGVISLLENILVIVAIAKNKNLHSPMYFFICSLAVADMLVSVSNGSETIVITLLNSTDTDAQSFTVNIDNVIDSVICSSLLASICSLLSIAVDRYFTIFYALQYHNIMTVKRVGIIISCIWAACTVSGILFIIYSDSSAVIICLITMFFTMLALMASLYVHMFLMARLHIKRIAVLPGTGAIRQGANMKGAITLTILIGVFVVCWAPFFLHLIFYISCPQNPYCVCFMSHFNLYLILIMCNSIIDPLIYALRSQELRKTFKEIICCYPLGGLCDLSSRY
Assay: Competitive inhibition assay using [I^125]-NDP-α-MSH, hMC4-R membranes
Type: binding
Design: host or cells: TREx-293 (HEK-293 stably expressing Tet repressor)
Conditions: 1 μM test compound; read-out: Inhibition at 1 μM (NDP-α-MSH) In Normal System, MC4-R
Non-standard residues stand in square brackets, D forms with d. Residues, ends and D or L forms follow the SMILES beside them. *: point of attachment. dPhe(4-Cl) = N[C@H](Cc1ccc(Cl)cc1)C(=O)O; Ahp = NCCCCCCC(=O)O; Bn = c1ccc(C*)cc1
Use % as the unit, but write only the number.

Answered cases to consult:
Query string: Fill in the blank: the reported inhibition at 1 µM of C[C@H](NC(=O)[C@H](Cc1c[nH]c2ccccc12)NC(=O)[C@H](CCCNC(=N)N)NC(=O)[C@@H](Cc1ccc(Cl)cc1)NC(=O)[C@H](COCc1ccccc1)NC(=O)CCCCCCN)C(N)=O [Example 15] (H-[Ahp]S(Bn)[dPhe(4-Cl)]RWA-NH2) is ____.
Result string: 100

Query string: Fill in the blank: the reported inhibition at 1 µM of Cc1cc(Cl)ccc1C[C@@H](N)C(=O)N1C[C@@H](C)N(CCc2ccc3ccccc3c2)C[C@@H]1CCCNC(=N)N [Example 26] is ____.
Result string: 100

Query string: Fill in the blank: the reported inhibition at 1 µM of N=C(N)NCCC[C@H]1C(=O)N2C(CC[C@@H]2COc2ccc3ccccc3c2)N1C(=O)[C@@H](Cc1ccc(Cl)cc1Cl)NC(=O)[C@@H]1Cc2ccccc2CN1 (stereo partly shown) [Example 22] is ____.
Result string: 100

Next:
Query string: Fill in the blank: the reported inhibition at 1 µM of CC(=O)N[C@H](Cc1ccc2ccccc2c1)C(=O)N1C[C@@H](CC(C)C)N(CCc2ccc3ccccc3c2)C[C@@H]1CCCNC(=N)N [Example 12] is ____.
Result string: 100

Query string: Fill in the blank: the reported inhibition at 1 µM of C[C@@H]1CN(C(=O)[C@H](N)Cc2ccc(Cl)cc2Cl)[C@@H](CCCNC(=N)N)CN1CCc1ccc2ccccc2c1 [Example 11] is ____.
Result string: 99

* * *

Biological target: MC1-R (Mus musculus, UniProt Q01727)
Construct: B-16 mouse melanoma cells (containing MC1-R); endogenous in cells
Sequence (Q01727 whole entry): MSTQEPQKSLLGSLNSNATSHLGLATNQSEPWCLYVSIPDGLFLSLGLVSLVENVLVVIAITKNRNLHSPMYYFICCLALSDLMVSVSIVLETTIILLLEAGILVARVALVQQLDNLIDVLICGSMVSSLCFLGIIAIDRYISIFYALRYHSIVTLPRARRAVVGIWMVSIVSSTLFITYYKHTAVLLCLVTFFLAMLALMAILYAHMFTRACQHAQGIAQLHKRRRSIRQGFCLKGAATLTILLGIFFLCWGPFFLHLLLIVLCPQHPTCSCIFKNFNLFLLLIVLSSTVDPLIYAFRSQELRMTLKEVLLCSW
Assay: Competitive inhibition assay using [I^125]-NDP-α-MSH, B-16 mouse melanoma cell membranes
Assay type: binding
Details: 1 μM test compound; read-out: Inhibition at 1 μM (NDP-α-MSH) In Normal System, MC1-R
reportedMetric: inhibition at 1 µM
A complete answer gives the number followed by the unit.

Answered cases to consult:
Query string: Missing value: inhibition at 1 µM, MC1-R (Mus musculus, UniProt Q01727), entry N=C(N)NCCC[C@H]1C(=O)N2C(CC[C@@H]2COc2ccc3ccccc3c2)N1C(=O)[C@@H](Cc1ccc(Cl)cc1Cl)NC(=O)[C@@H]1Cc2ccccc2CN1 (stereo partly drawn) . Fill in?
Result string: 75%

Query string: Missing value: inhibition at 1 µM, MC1-R (Mus musculus, UniProt Q01727), entry Cc1cc(Cl)ccc1C[C@@H](N)C(=O)N1C[C@@H](C)N(CCc2c[nH]c3ccccc23)C[C@@H]1CCCNC(=N)N . Fill in?
Result string: 40%

Query string: Missing value: inhibition at 1 µM, MC1-R (Mus musculus, UniProt Q01727), entry Cc1cc(Cl)ccc1C[C@@H](N)C(=O)N1C[C@@H](C)N(CCc2ccc3ccccc3c2)C[C@@H]1CCCNC(=N)N . Fill in?
Result string: 6%

Query string: Missing value: inhibition at 1 µM, MC1-R (Mus musculus, UniProt Q01727), entry Cc1ccc(C[C@@H](N)C(=O)N2C[C@@H](C)N(CCc3ccc4ccccc4c3)C[C@@H]2CCCNC(=N)N)c(C)c1 . Fill in?
Result string: 9%

Query string: Missing value: inhibition at 1 µM, MC1-R (Mus musculus, UniProt Q01727), entry CCNC(=O)[C@@H]1CCCCNC(=O)C[C@H](NC(C)=O)C(=O)N[C@@H](Cc2c[nH]cn2)C(=O)N[C@H](Cc2ccccc2)C(=O)N[C@@H](CCCNC(=N)N)C(=O)N[C@@H](Cc2c[nH]c3ccccc23)C(=O)N1 . Fill in?
Result string: 96%

# context switch: different compound, same inhibition at 1 µM
Query string: Missing value: inhibition at 1 µM, MC1-R (Mus musculus, UniProt Q01727), entry C[C@@H]1CN(C(=O)[C@H](N)Cc2ccc3ccccc3c2)[C@@H](CCCNC(=N)N)CN1C(=O)Cc1ccc2ccccc2c1 . Fill in?
Result string: 43%

// provenance: patent US20090081197A1
